Reported composite z-score values are given for each entry in this list.
# assay.comment: binders of probe aFGF2 on microarray, primary screen, stem cell growth factor project, biochemical, small-molecule microarray, fluorescence 635/667 (AID 1067);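 also: measures binding of biotinylated aFGF2 protein to printed compounds on slides; z-score merges feature fluorescence and signal-to-noise across triplicate slides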
# condition.info: higher = more signal

{"columns": ["compound", "composite z-score"],
 "data": [
  ["C=CCOC(=O)[C@H]1[C@@H]2C(=O)O[C@@H](c3ccccc3)[C@@H](c3ccccc3)N2[C@@H](c2ccc(OCCOC(=O)[C@H]3C[C@H]4C(=O)N[C@@H](CC(C)C)C(=O)N4[C@H]3c3ccc(O)cc3)cc2)[C@]12C(=O)Nc1ccc(I)cc12", -0.0355],
  ["CCC(CC)C(O)C1C=CC2C(=O)N(C)C(=O)C2N1Nc1ccccc1 (centres undefined)", 0.117],
  ["COc1ccc(C(=O)Nc2ccc(CN3C(=O)[C@@]4(O[C@@H](CCn5cc([C@H](O)c6ccccc6)nn5)[C@H]([Si](C)(C)c5ccc(OC)cc5)[C@H]4C)c4ccccc43)cc2)cc1", 0.484],
  ["COc1ccc([C@H]2OC[C@@H]3CC4(CC=CC4)C(=O)N32)cc1", -0.129]
]}

* * *

# composite z-score listing for each entry below
# Tested on: Sam68 (KHDRBS1)
# assay.comment: Sam68 small-molecule binders, primary screen, biochemical, small-molecule microarray, 635 nm fluorescence (AID 1125);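 also: score merges 667 nm channel intensity with signal to noise over triplicate slides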
# condition.info: small-molecule microarray binding, higher = more signal

{"columns": ["compound", "composite z-score"],
 "data": [
  ["C=CCOC(=O)[C@@H]1[C@H]2C(=O)O[C@H](c3ccccc3)[C@H](c3ccccc3)N2[C@H](c2ccc(OCCOC(=O)[C@@H]3C[C@@H]4C(=O)N[C@@H](Cc5ccccc5)C(=O)N4[C@@H]3c3ccc(O)cc3)cc2)[C@@]12C(=O)Nc1ccc(I)cc12", 1],
  ["[N-]=[N+]=NCc1ccccc1[C@H]1OC(c2ccc(OCCCO)cc2)=N[C@@]1(Cc1ccccc1)C(=O)NCc1ccccc1", 1.26],
  ["O=C1O[C@H](c2ccccc2)[C@H](c2ccccc2)N2[C@H]1[C@@H](C(=O)O)[C@]1(C(=O)Nc3ccc(C#CCCO)cc31)[C@H]2c1ccc(O)cc1", 0.0673],
  ["O=C1C2C=CC(C(O)c3ccc(F)cc3)N(Nc3ccccc3F)C2C(=O)N1c1ccccc1 (stereo unspecified)", 1.13],
  ["C=CCOC(=O)[C@H]1[C@@H]2C(=O)O[C@@H](c3ccccc3)[C@@H](c3ccccc3)N2[C@@H](c2ccc(OCCOC(=O)[C@H]3C[C@H]4C(=O)N5CCC[C@H]5C(=O)N4[C@H]3c3ccc(O)cc3)cc2)[C@]12C(=O)Nc1ccccc12", 1.32],
  ["COCCOC(=O)N1C(=O)[C@@]2(c3cc(C#CC4=CCCCC4)ccc31)[C@H](C(N)=O)[C@H]1C(=O)O[C@H](c3ccccc3)[C@H](c3ccccc3)N1[C@@H]2c1ccc(OCCO)cc1", 1.3]
]}

* * *

# System: Lefty1
# assay.comment: Lefty1 binders on small-molecule microarrays, primary screen, biochemical, small-molecule microarray, 635/667 nm fluorescence (AID 1139)
# condition.info: small-molecule microarray binding, fluorescence 635/667; higher = more signal
recorded.metric: composite z-score

{"columns": ["molecule.smiles", "target.under.test", "recorded.metric", "observed.value"],
 "data": [
  ["COCCOC(=O)N1C(=O)[C@@]2(c3cc(C#CCCO)ccc31)[C@H](C(=O)Nc1nc3ccccc3s1)[C@H]1C(=O)O[C@H](c3ccccc3)[C@H](c3ccccc3)N1[C@@H]2c1ccc(OCCO)cc1", "Lefty1", "composite z-score", 1.26],
  ["CC(C)C[C@@H]1NC(=O)[C@H]2C[C@@H](C(=O)NCCCCCCN)[C@@H](c3ccc(O)cc3)N2C1=O", "Lefty1", "composite z-score", 0.632],
  ["COC(=O)c1c(CC[C@@H](CO)NC(=O)N[C@@H](C)Cn2cc(C3(O)CCCCC3)nn2)oc(C(C)=O)c1C(=O)OC", "Lefty1", "composite z-score", 1.66],
  ["O=C(NCc1ccccc1)[C@@]1(CCS(=O)(=O)c2ccccc2)N=C(c2ccc(OCCCO)cc2)O[C@H]1c1ccccc1", "Lefty1", "composite z-score", 0.116]
]}
